- Tested on: PC-3 prostate
- ASSAY_NOTES: NCI-60 one-dose screen, 48 h
- CONDITION_CONTEXT: 10 µM unless noted
Compounds without any hit were thinned out: in the full panel of roughly 83,000, 20% have a hit. Activity calls are given as the source filed them. Rule for the calls: active = growth percent below 10; inactive = the rest.
Answer with one of the outcomes YES (active), NO (inactive)

Below, 8 compounds whose answers are already recorded.
[[record]]
compound = "Cc1cc2nc3c4cc(Cl)ccc4n(CC(=S)NCCN(C)C)c3nc2cc1C"
assigned_category = "YES"

[[record]]
compound = "COc1ccc(C(=O)/C=C/c2ccc(OCc3ccc(C)cc3)c(OC)c2)cc1OC"
assigned_category = "NO"

[[record]]
compound = "Cc1ccc2ccc3ccc(C)nc3c2n1.Cc1ccc2ccc3ccc(C)nc3c2n1.Oc1c(Cl)cc(Cl)c2ccc(CN3CCCCC3)nc12.[Ru]"
assigned_category = "YES"

[[record]]
compound = "C=C1CC[C@H]2[C@@](C)(CCC3OC(c4ccc(OCc5cn(C6CC(OC(C)=O)C(OC(C)=O)C(COC(C)=O)O6)nn5)cc4)OC[C@]32C)[C@@H]1/C=C/C1=CCOC1=O (some centres undefined)"
assigned_category = "NO"

[[record]]
compound = "COc1ccc(Cc2nn(CC(=O)N/N=C/c3ccc(Cl)cc3)c(=O)c3c(C)noc23)cc1"
assigned_category = "NO"

[[record]]
compound = "N#Cc1ccc(C(=O)CSc2nc(Nc3ccc(S(N)(=O)=O)cc3)c3ccccc3n2)cc1"
assigned_category = "NO"

[[record]]
compound = "O=C(Nc1nc2ccc(O)cc2s1)c1cccc(C(F)(F)F)c1"
assigned_category = "NO"

[[record]]
compound = "Cn1cc(-c2cc(N)n3nc(-c4cn(C)c5ccc(F)cc45)cc3n2)c2cc(F)ccc21"
assigned_category = "NO"


### Prompt Which outcome was assigned to COc1ccccc1C(=O)CSc1nc(Nc2ccc(S(N)(=O)=O)cc2)c2ccccc2n1 in this test?
### Response NO

### Prompt Which outcome was assigned to COc1ccc(CNS(=O)(=O)/N=C2\NC(=O)NC2=C(Cl)Cl)cc1 in this test?
### Response NO

###

- System: BT-549 breast
- ASSAY_NOTES: NCI-60 one-dose screen, 48 h (100 = growth as untreated, 0 = no growth, -100 = all killed)
- CONDITION_CONTEXT: 10 µM unless noted
The panel holds about 83,000 compounds, 20% with a hit somewhere; the sample as a whole holds those more often.
Each item that follows carries a reported growth.
Use % as the unit, but write only the number.

[[record]]
compound = "COc1ccc(/C=N/Nc2ccnc3cc(Cl)ccc23)cc1Cl"
numeric_value = -79.8

[[record]]
compound = "COc1ccc(/C=C/C(=O)c2ccc(NC(=O)CSc3nnc(-c4ccc5nc(-c6ccc(Cl)cc6)[nH]c5c4)o3)cc2)cc1"
numeric_value = 85

[[record]]
compound = "COc1ccc(-c2csc(N/N=C/c3c(-c4ccc(S(C)(=O)=O)cc4)nc4ccccn34)n2)cc1"
numeric_value = 115

[[record]]
compound = "COc1ccc(/C=C2\\SC(=Nc3cc(C)on3)NC2=O)cc1"
numeric_value = 88.1

[[record]]
compound = "COc1cc(OC)c(C2SCC(=O)N2Nc2ncnc3ccccc23)cc1OC (stereo not drawn)"
numeric_value = 105

[[record]]
compound = "[Cl][Ru].c1ccc(-c2cccc(-c3ccccn3)n2)nc1.c1ccc(-c2ccnc3c2ccc2c(-c4ccccc4)ccnc23)cc1"
numeric_value = 7.88

[[record]]
compound = "CS(=O)(=O)Nc1ccc(-c2nn(-c3ccc(S(C)(=O)=O)cc3)cc2/C=C/C(=O)c2ccc(NC(=O)CO[N+](=O)[O-])cc2)cc1"
numeric_value = 98.7

[[record]]
compound = "N#Cc1nc(-c2ccccc2)oc1N1CCC(CO)C1 (stereo not drawn)"
numeric_value = 95.3

[[record]]
compound = "OC1CCN(CCCOc2c3ccccc3nc3c2oc2ccc(Cl)cc23)CC1"
numeric_value = 57.1

[[record]]
compound = "COc1cc(/C=C/C(=O)c2cc(OC)c(OC)c(OC)c2)ccc1OCc1ccccc1"
numeric_value = 32


### Prompt Which growth is listed for CC(=O)c1ccc(Nc2nc(SC(C)C)nc(-c3ccccc3)c2C#N)cc1 ?
### Response 118

### Prompt Which growth is listed for COc1cc(/C=C/C(=O)c2ccc(Cl)cc2)ccc1Oc1nc(NCCO)nc(N2CCOCC2)n1 ?
### Response 100

### Prompt Which growth is listed for CCOC(=O)c1c(Nc2ccccc2)nn2c(-c3ccco3)c(C#N)cnc12 ?
### Response 83.1

###

- Tested on: HS 578T breast
- ASSAY_NOTES: NCI-60 one-dose screen, 48 h (100 = growth as untreated, 0 = no growth, -100 = all killed)
- CONDITION_CONTEXT: 10 µM unless noted
About 83,000 compounds went through this panel and 20% of them were active in at least one assay; those are over-represented in the sample as a whole.
Decision: growth >= 40% yields Criterion met, all other cases yield Criterion not met.

Below, 4 compounds whose answers are already recorded.
[[record]]
compound = "CN(C)CCCOc1c2ccccc2nc2c1oc1ccc(Cl)cc12"
target_system = "HS 578T breast"
assigned_category = "Criterion not met"

[[record]]
compound = "C#Cc1nc(C2=C(C)C(O)/C(=N/O)C2)cs1 (stereo not given)"
target_system = "HS 578T breast"
assigned_category = "Criterion met"

[[record]]
compound = "Cn1cc(-c2cc(N)n3nc(-c4cn(C)c5ccc(Br)cc45)cc3n2)c2cc(Br)ccc21"
target_system = "HS 578T breast"
assigned_category = "Criterion met"

[[record]]
compound = "CCN1CCN(S(=O)(=O)c2oc(-c3ccc(Cl)cc3)nc2C#N)CC1"
target_system = "HS 578T breast"
assigned_category = "Criterion met"


### Prompt Check the entry Clc1ccc2oc3c(NCCCN4CCOCC4)c4ccccc4nc3c2c1 : does growth equal or exceed 40%?
### Response Criterion not met

### Prompt Check the entry CC(=NNc1ncnc2ccccc12)c1ccc(S(C)(=O)=O)cc1 : does growth equal or exceed 40%?
### Response Criterion met

### Prompt Check the entry COc1ccc(-c2nc3ccc(-c4nnc(SCC(=O)Nc5ccc(C(C)=O)cc5)o4)cc3[nH]2)cc1 : does growth equal or exceed 40%?
### Response Criterion met

### Prompt Check the entry COc1ccc(Cc2nn(CC(=O)N/N=C/c3ccc(Cl)cc3)c(=O)c3c(C)noc23)cc1 : does growth equal or exceed 40%?
### Response Criterion not met

### Prompt Check the entry COc1cc(/C=C/C(=O)c2cc(OC)c(OC)c(OC)c2)ccc1OCc1ccccc1 : does growth equal or exceed 40%?
### Response Criterion met

### Prompt Check the entry N#Cc1ccc(/C=N/NC(=O)c2[nH]c3ccc(Br)cc3c2-c2ccccc2)s1 : does growth equal or exceed 40%?
### Response Criterion not met

###

- System: KM12 colon
- ASSAY_NOTES: NCI-60 one-dose screen, 48 h (100 = growth as untreated, 0 = no growth, -100 = all killed)
- CONDITION_CONTEXT: 10 µM unless noted
This is part of a sample that, as a whole, favours compounds with a hit. Of some 83,000 tested, about 20% had one in any assay.
Decision: growth >= 90% yields T, all other cases yield F.

Below, 2 molecules whose answers are already recorded.
[[record]]
molecule = "O=C1Nc2ccc(Cl)cc2/C1=C/c1ccc(OCC(=O)c2ccc(Br)cc2)cc1"
assigned_category = "F"

[[record]]
molecule = "NS(=O)(=O)c1cccc(Nc2nc(SCC(=O)c3ccc(Br)cc3)nc3ccccc23)c1"
assigned_category = "F"


### Prompt Check the entry O=C(O)CCCCCN1C(=O)/C(=C/c2ccc(O)c(O)c2)SC1=S : does growth equal or exceed 90%?
### Response T

### Prompt Check the entry Clc1ccc(-c2cn3cc(Cc4ccc(Cl)c(Cl)c4)sc3n2)cc1 : does growth equal or exceed 90%?
### Response F

### Prompt Check the entry COc1cc(-c2nc3ccc(-c4nnc(SCC(=O)Nc5ccc(C(C)=O)cc5)o4)cc3[nH]2)cc(OC)c1OC : does growth equal or exceed 90%?
### Response T

###

- Tested on: UACC-257 melanoma
- ASSAY_NOTES: NCI-60 one-dose screen, 48 h (100 = growth as untreated, 0 = no growth, -100 = all killed)
- CONDITION_CONTEXT: 10 µM unless noted
- Description: Cells are grown in 96 well plates and exposed to the test compound for 48 hours. Compounds are tested at a single concentration, which is 10^-5 M for most compounds. The reported endpoint is percent growth (GI% or GIPRCNT), where numbers from 0 - 100% represent growth inhibition, and numbers from -100% - 0 represent cell death. For example, a value of 40 represents 60% growth inhibition. A value of 0 means no net growth occurred over the course of the experiment. […]
About 83,000 compounds went through this panel and 20% of them were active in at least one assay; those are over-represented in the sample as a whole.
Decision: growth >= 70% yields class 1, all other cases yield class 0.

Below, 10 compounds whose answers are already recorded.
[[record]]
compound = "OC1CCN(CCCOc2c3ccc(Cl)cc3nc3c2oc2ccccc23)CC1"
target_system = "UACC-257 melanoma"
assigned_category = "class 0"

[[record]]
compound = "O=C(N/N=C/c1ccc(Br)s1)c1[nH]c2ccc(Br)cc2c1-c1ccccc1"
target_system = "UACC-257 melanoma"
assigned_category = "class 0"

[[record]]
compound = "COc1ccc(NC2=C(Cl)C(=O)C(C)=C(C)C2=O)cc1OC"
target_system = "UACC-257 melanoma"
assigned_category = "class 1"

[[record]]
compound = "COc1ccc(/C=N/NC(=O)c2[nH]c3ccc(Br)cc3c2-c2ccccc2)s1"
target_system = "UACC-257 melanoma"
assigned_category = "class 0"

[[record]]
compound = "CCOC(=O)c1csc(NC(=O)CSc2nc3sc4c(c3c(=O)n2-c2ccc(Cl)cc2)CCCC4)n1"
target_system = "UACC-257 melanoma"
assigned_category = "class 1"

[[record]]
compound = "Cn1cc(-c2cc(N)n3nc(-c4cn(C)c5ccc(Br)cc45)cc3n2)c2cc(Br)ccc21"
target_system = "UACC-257 melanoma"
assigned_category = "class 1"

[[record]]
compound = "COc1cccc(NC2=CC(=O)C(C)=C(C)C2=O)c1"
target_system = "UACC-257 melanoma"
assigned_category = "class 0"

[[record]]
compound = "CN(C)CCCOc1c2ccc(Cl)cc2nc2c1oc1ccccc12"
target_system = "UACC-257 melanoma"
assigned_category = "class 0"

[[record]]
compound = "CNC(=O)c1cc(-c2ccc(NC(=O)Nc3ccc(N4CCOCC4)c(C(F)(F)F)c3)cc2)nc2cccnc12"
target_system = "UACC-257 melanoma"
assigned_category = "class 1"

[[record]]
compound = "CCOC(=O)c1c(Nc2ccccc2)nn2c(N)c(C#N)c(-c3ccc(OC)cc3)nc12"
target_system = "UACC-257 melanoma"
assigned_category = "class 1"


### Prompt Check the entry Clc1ccc2oc3c(NCCCn4ccnc4)c4ccccc4nc3c2c1 : does growth equal or exceed 70%?
### Response class 1

### Prompt Check the entry Cc1cc(=O)oc2cc(OCCCOc3ccc(/C=C/C(=O)Nc4ccc(Cl)cc4)cc3)ccc12 : does growth equal or exceed 70%?
### Response class 1
